Can you tell me MIC for the items I'm about to list?
Please give a number only; it is taken to be in µg/mL.

Task: Provide the documented MIC with Staph. aureus C-5216 as the system for CON=C(C(=O)NC1C(=O)N2C(C(=O)[O-])=C(C[n+]3ccn4c(C(=O)O)ccc4c3)CSC12)c1csc(N)n1 (stereo not drawn) [Ex. 17]
Output: 1.56

Task: So what MIC did Nc1nc(C(=NOCF)C(=O)NC2C(=O)N3C(C(=O)[O-])=C(C[n+]4ccn5c(CO)ccc5c4)CSC23)cs1 (stereo not drawn) [Ex. 22] get with Staph. aureus C-5216?
Output: 0.78

Task: Tell me reported MIC for NCCSc1ccc2c[n+](CC3=C(C(=O)[O-])N4C(=O)C(NC(=O)C(=NOCF)c5csc(N)n5)C4SC3)ccn12 (stereo not drawn) [Ex. 29] , tested with Staph. aureus C-5216.
Output: 0.78

====

# System: M. morganii DY-1
# PROTOCOL_NOTES: MIC by agar dilution, M. morganii DY-1
# Assay type: cell-based
# CONDITION_PARAMETERS: Morganella morganii, DY1, 17 h; M. morganii DY-1; agar dilution, Mueller-Hinton agar; read-out: Minimal Inhibitory Concentration (MIC)
Exercise: state measured MIC for each of the molecules provided.

Task: // lookup MIC for CON=C(C(=O)NC1C(=O)N2C(C(=O)[O-])=C(C[n+]3ccn4cccc4c3)CSC12)c1csc(N)n1 (stereo not drawn)
Output: ≤ 6 ng/mL

Task: # lookup: MIC of CO/N=C(\C(=O)N[C@@H]1C(=O)N2C(C(=O)[O-])=C(C[n+]3cc(C(=O)O)n4cccc4c3)CS[C@H]12)c1csc(N)n1
Output: ≤ 6 ng/mL

Task: # query: MIC of entry CO/N=C(\C(=O)N[C@@H]1C(=O)N2C(C(=O)[O-])=C(C[n+]3ccn4ccc(Cl)c4c3)CS[C@H]12)c1csc(N)n1
Output: ≤ 6 ng/mL

====

For each of the molecules below, state its MIC.
# Test system: M. morganii DY-1
# PROTOCOL_NOTES: MIC by agar dilution, M. morganii DY-1
# Assay type: cell-based
# CONDITION_PARAMETERS: Morganella morganii, DY1, 17 h; M. morganii DY-1; agar dilution, Mueller-Hinton agar; read-out: Minimal Inhibitory Concentration (MIC)
Give just the numeric value; µg/mL need not be written.

Task: I'd like to know its MIC. The molecule in question is CO/N=C(\C(=O)N[C@@H]1C(=O)N2C(C(=O)[O-])=C(C[n+]3ccn4c(SCCO)ccc4c3)CS[C@H]12)c1nc(N)sc1Cl
Output: 0.2

Task: Which MIC value is on record for CO/N=C(\C(=O)N[C@@H]1C(=O)N2C(C(=O)[O-])=C(C[n+]3ccn4c(SCCO)ccc4c3)CS[C@H]12)c1nsc(N)n1 ?
Output: 0.05

Task: Item Nc1nc(/C(=N\O)C(=O)N[C@@H]2C(=O)N3C(C(=O)[O-])=C(C[n+]4ccn5cccc5c4)CS[C@H]23)cs1 has what recorded MIC?
Output: 0.1

Task: // MIC lookup, key: CON=C(C(=O)NC1C(=O)N2C(C(=O)[O-])=C(C[n+]3ccn4c(SCCN)ccc4c3)CSC12)c1csc(N)n1 (centres unmarked)
Output: 0.012

Task: Entry under review: CCON=C(C(=O)NC1C(=O)N2C(C(=O)[O-])=C(C[n+]3ccn4c(C=O)ccc4c3)CSC12)c1csc(N)n1 (centres unmarked) . Reported MIC?
Output: 0.2

Task: Which MIC value belongs to CO/N=C(\C(=O)N[C@@H]1C(=O)N2C(C(=O)O)=C(COC(C)=O)CS[C@H]12)c1csc(N)n1 [CTX, Cefotaxime, reference compound] ?
Output: 0.025

Task: Item under review: CON=C(C(=O)NC1C(=O)N2C(C(=O)[O-])=C(C[n+]3ccn4c(CO)ccc4c3)CSC12)c1csc(N)n1 (centres unmarked) . Reported MIC?
Output: 0.012

Task: So what's the measured MIC for this one? CO/N=C(\C(=O)N[C@@H]1C(=O)N2C(C(=O)[O-])=C(C[n+]3ccn4c(Cl)ccc4c3C)CS[C@H]12)c1csc(N)n1
Output: 0.012

Task: Consider the molecule CO/N=C(\C(=O)N[C@@H]1C(=O)N2C(C(=O)[O-])=C(C[n+]3ccn4c(CO)ccc4c3)CS[C@H]12)c1nsc(N)n1 and give its measured MIC.
Output: 0.012
